# System: 695427-040-R-J1-PDC complex spheroids, viability percent T/C
# protocol_notes: Anticancer human tumor 695427-040-R-J1-PDC patient-derived colon adenocarcinoma cell line growth inhibition [GQUAD]; active = viability on the fitted dose curve at most 10% of control; inactive = the rest
# recorded_conditions: second compound 3.16 µM; first compound 1 µM
Outcome field: choose from 1 for active, -1 for inactive

Q: Name the outcome recorded for O=C(NO)c1cnc(N2CCN(S(=O)(=O)c3ccc4ccccc4c3)CC2)nc1 + CN(C)c1ccc(Nc2c3ccc(NC(=O)CCN4CCCC4)cc3nc3cc(NC(=O)CCN4CCCC4)ccc23)cc1 in the assay.
A: 1

Q: Tell me the recorded outcome of this test for COc1ncnc(C2CC2)c1-c1ncc2cnn(Cc3ccc(-c4nc(C(F)(F)F)cn4C(C)C)cc3)c2n1 + Cc1cnc(CNC(=O)c2c(=O)c3ccc(N4CCCN(C)CC4)nc3n3c2sc2ccccc23)cn1 .
A: -1

Q: Answer briefly: the call reported for O=c1[nH]cc(F)c(=O)[nH]1 + Cc1cnc(CNC(=O)c2c(=O)c3ccc(N4CCCN(C)CC4)nc3n3c2sc2ccccc23)cn1 in this assay.
A: -1

Q: What is the recorded call for this molecule in the test? CC(C)(O)C1CCC(Nc2ccc3ncc(-c4cccc(C(F)(F)F)c4)n3n2)CC1 (centres undefined) + Cc1[nH]c2ccc(F)cc2c1-c1nc2c3cccnc3c3ncccc3c2[nH]1
A: -1

====

Provide the reported viability, T/C of each item.
# Tested on: 695427-040-R-J1-PDC complex spheroids, viability percent T/C
# protocol_notes: Anticancer human tumor 695427-040-R-J1-PDC cell line growth inhibition [GQUAD];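 note: spheroids exposed to compounds for seven days before readout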
# recorded_conditions: second compound 0.1 µM; first compound 0.00999 µM; hits give low values

Q: Provide the reported viability, T/C (system: 695427-040-R-J1-PDC complex spheroids, viability percent T/C) for Cn1ncnc1[C@H]1c2n[nH]c(=O)c3cc(F)cc(c23)N[C@@H]1c1ccc(F)cc1 + Cc1cnc(CNC(=O)c2c(=O)c3ccc(N4CCCN(C)CC4)nc3n3c2sc2ccccc23)cn1
A: 87.5%

Q: Look up and report measured viability, T/C (695427-040-R-J1-PDC complex spheroids, viability percent T/C) for the following molecule: CC[C@@]1(O)C(=O)OCc2c1cc1n(c2=O)Cc2cc3c(CN(C)C)c(O)ccc3nc2-1 + Cc1cnc(CNC(=O)c2c(=O)c3ccc(N4CCCN(C)CC4)nc3n3c2sc2ccccc23)cn1
A: 90.8%

Q: Consider the molecule Cc1[nH]c2ccccc2c1CCNCc1ccc(/C=C/C(=O)NO)cc1 + Cc1[nH]c2ccc(F)cc2c1-c1nc2c3cccnc3c3ncccc3c2[nH]1 tested on 695427-040-R-J1-PDC complex spheroids, viability percent T/C; state its viability, T/C.
A: 91.1%

====

# Test system: 695427-040-R-J1-PDC complex spheroids, viability percent T/C
# protocol_notes: Anticancer human tumor 695427-040-R-J1-PDC cell line growth inhibition [GQUAD];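 note: spheroids exposed to compounds for seven days before readout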
# recorded_conditions: second compound 0.1 µM; first compound 1 µM; hits give low values
property_measured: viability, T/C (%)
Reply with just the number (in %).

Q: Give the reported viability, T/C for this compound. CCCS(=O)(=O)Nc1ccc(F)c(C(=O)c2c[nH]c3ncc(-c4ccc(Cl)cc4)cc23)c1F + Cc1cnc(CNC(=O)c2c(=O)c3ccc(N4CCCN(C)CC4)nc3n3c2sc2ccccc23)cn1
A: 82.4

Q: Dear colleague, please send me the reported viability, T/C for CC(=O)O[C@H]1C(=O)[C@@]2(C)[C@H]([C@H](OC(=O)c3ccccc3)[C@]3(O)C[C@H](OC(=O)[C@H](O)[C@@H](NC(=O)c4ccccc4)c4ccccc4)C(C)=C1C3(C)C)[C@]1(OC(C)=O)CO[C@@H]1C[C@@H]2O + Cc1cnc(CNC(=O)c2c(=O)c3ccc(N4CCCN(C)CC4)nc3n3c2sc2ccccc23)cn1 when you can.
A: 57.8

Q: Supply measured viability, T/C of C=CC(=O)N1CCN(c2nc(=O)n(-c3c(C)ccnc3C(C)C)c3nc(-c4c(O)cccc4F)c(F)cc23)C(C)C1 (configuration not stated) + CN(C)c1ccc(Nc2c3ccc(NC(=O)CCN4CCCC4)cc3nc3cc(NC(=O)CCN4CCCC4)ccc23)cc1 in your reply.
A: 94.6

Q: Assign viability, T/C to the following record: Nc1ccn(C2OC(CO)C(O)C2(F)F)c(=O)n1 (configuration not stated) + Cc1[nH]c2ccc(F)cc2c1-c1nc2c3cccnc3c3ncccc3c2[nH]1
A: 54.1

Q: Item C=CC(=O)N1CCN(c2nc(=O)n(-c3c(C)ccnc3C(C)C)c3nc(-c4c(O)cccc4F)c(F)cc23)C(C)C1 (configuration not stated) + Cc1[nH]c2ccc(F)cc2c1-c1nc2c3cccnc3c3ncccc3c2[nH]1 : provide viability, T/C
A: 67.8

Q: Fill in reported viability, T/C for this entry: O=C(NO)c1cnc(N2CCN(S(=O)(=O)c3ccc4ccccc4c3)CC2)nc1 + Cc1[nH]c2ccc(F)cc2c1-c1nc2c3cccnc3c3ncccc3c2[nH]1
A: 87

Q: Entry O=c1[nH]cc(F)c(=O)[nH]1 + Cc1cnc(CNC(=O)c2c(=O)c3ccc(N4CCCN(C)CC4)nc3n3c2sc2ccccc23)cn1 needs its viability, T/C filled in; supply it.
A: 74.9

Q: Answer with the recorded viability, T/C for the compound listed here: O=C(NO)c1cnc(N2CCN(S(=O)(=O)c3ccc4ccccc4c3)CC2)nc1 + CN(C)c1ccc(Nc2c3ccc(NC(=O)CCN4CCCC4)cc3nc3cc(NC(=O)CCN4CCCC4)ccc23)cc1
A: 3.81

Q: Specify viability, T/C for COc1ncnc(C2CC2)c1-c1ncc2cnn(Cc3ccc(-c4nc(C(F)(F)F)cn4C(C)C)cc3)c2n1 + CN(C)c1ccc(Nc2c3ccc(NC(=O)CCN4CCCC4)cc3nc3cc(NC(=O)CCN4CCCC4)ccc23)cc1 and stop.
A: 93.2

Q: Give the measured viability, T/C for COc1cc(C2c3cc4c(cc3C(OC3OC5COC(C)OC5C(O)C3O)C3COC(=O)C23)OCO4)cc(OC)c1O (configuration not stated) + Cc1cnc(CNC(=O)c2c(=O)c3ccc(N4CCCN(C)CC4)nc3n3c2sc2ccccc23)cn1
A: 62.9

Q: Return viability, T/C for the following compound: C#Cc1c(F)ccc2cc(O)cc(-c3ncc4c(N5CC6CCC(C5)N6)nc(OCC56CCCN5CC(F)C6)nc4c3F)c12 (configuration not stated) + Cc1[nH]c2ccc(F)cc2c1-c1nc2c3cccnc3c3ncccc3c2[nH]1
A: 62.3

Q: # return recorded viability, T/C for input CC(=O)O[C@H]1C(=O)[C@@]2(C)[C@H]([C@H](OC(=O)c3ccccc3)[C@]3(O)C[C@H](OC(=O)[C@H](O)[C@@H](NC(=O)c4ccccc4)c4ccccc4)C(C)=C1C3(C)C)[C@]1(OC(C)=O)CO[C@@H]1C[C@@H]2O + CN(C)c1ccc(Nc2c3ccc(NC(=O)CCN4CCCC4)cc3nc3cc(NC(=O)CCN4CCCC4)ccc23)cc1
A: 79.8

====

# Test system: 695427-040-R-J1-PDC complex spheroids, viability percent T/C
# protocol_notes: Anticancer human tumor 695427-040-R-J1-PDC cell line growth inhibition [GQUAD]; active means viability on the fitted dose curve at most 10% of control; inactive means the rest;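 note: spheroids exposed to compounds for seven days before readout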
# recorded_conditions: second compound 0.0316 µM; first compound 3.16 µM
Write down one outcome, taken from active, inactive

Q: What did the test return for C=CC(=O)N1CCN(c2nc(=O)n(-c3c(C)ccnc3C(C)C)c3nc(-c4c(O)cccc4F)c(F)cc23)C(C)C1 (stereo not drawn) + Cc1[nH]c2ccc(F)cc2c1-c1nc2c3cccnc3c3ncccc3c2[nH]1 ?
A: inactive

Q: // param item: CC(C)(O)C1CCC(Nc2ccc3ncc(-c4cccc(C(F)(F)F)c4)n3n2)CC1 (stereo not drawn) + Cc1cnc(CNC(=O)c2c(=O)c3ccc(N4CCCN(C)CC4)nc3n3c2sc2ccccc23)cn1 ; yields the recorded call
A: active

Q: Field: outcome | Entry: COc1ncnc(C2CC2)c1-c1ncc2cnn(Cc3ccc(-c4nc(C(F)(F)F)cn4C(C)C)cc3)c2n1 + CN(C)c1ccc(Nc2c3ccc(NC(=O)CCN4CCCC4)cc3nc3cc(NC(=O)CCN4CCCC4)ccc23)cc1
A: inactive

Q: Check the results log: what was the call for CC(C)n1c(=O)n(C)c2cnc3cc(F)c(-c4ccc(OCCCN5CCCCC5)nc4)cc3c21 + Cc1cnc(CNC(=O)c2c(=O)c3ccc(N4CCCN(C)CC4)nc3n3c2sc2ccccc23)cn1 ?
A: inactive

Q: Assay outcome for CC(=O)O[C@H]1C(=O)[C@@]2(C)[C@H]([C@H](OC(=O)c3ccccc3)[C@]3(O)C[C@H](OC(=O)[C@H](O)[C@@H](NC(=O)c4ccccc4)c4ccccc4)C(C)=C1C3(C)C)[C@]1(OC(C)=O)CO[C@@H]1C[C@@H]2O + Cc1[nH]c2ccc(F)cc2c1-c1nc2c3cccnc3c3ncccc3c2[nH]1 : what was it?
A: active

Q: Short answer needed: outcome of this test for Nc1ccn(C2OC(CO)C(O)C2(F)F)c(=O)n1 (stereo not drawn) + Cc1[nH]c2ccc(F)cc2c1-c1nc2c3cccnc3c3ncccc3c2[nH]1 ?
A: inactive

Q: Would you mind telling me which call this test gave Nc1ccn(C2OC(CO)C(O)C2(F)F)c(=O)n1 (stereo not drawn) + CN(C)c1ccc(Nc2c3ccc(NC(=O)CCN4CCCC4)cc3nc3cc(NC(=O)CCN4CCCC4)ccc23)cc1 ?
A: inactive

Q: # outcome recorded in this test, key = C#Cc1c(F)ccc2cc(O)cc(-c3ncc4c(N5CC6CCC(C5)N6)nc(OCC56CCCN5CC(F)C6)nc4c3F)c12 (stereo not drawn) + Cc1cnc(CNC(=O)c2c(=O)c3ccc(N4CCCN(C)CC4)nc3n3c2sc2ccccc23)cn1
A: inactive

Q: For CC1COCCN1c1cc(C2(O)CC3CCC(C2)O3)c2cnn(-c3ccn[nH]3)c2n1 (stereo not drawn) + Cc1cnc(CNC(=O)c2c(=O)c3ccc(N4CCCN(C)CC4)nc3n3c2sc2ccccc23)cn1 , which call appears in the assay record?
A: inactive

Q: Record lookup: outcome of this test for C=CCn1c(=O)c2cnc(Nc3ccc(N4CCN(C)CC4)cc3)nc2n1-c1cccc(C(C)(C)O)n1 + CN(C)c1ccc(Nc2c3ccc(NC(=O)CCN4CCCC4)cc3nc3cc(NC(=O)CCN4CCCC4)ccc23)cc1 ?
A: inactive

Q: Recorded test outcome, item Cc1cccc(N(C)C(=O)C2C(O)CCN2c2nc(C)cc(C(F)(F)F)c2C#N)c1 (stereo not drawn) + Cc1cnc(CNC(=O)c2c(=O)c3ccc(N4CCCN(C)CC4)nc3n3c2sc2ccccc23)cn1
A: inactive

Q: // outcome(item) with item = CCCS(=O)(=O)Nc1ccc(F)c(C(=O)c2c[nH]c3ncc(-c4ccc(Cl)cc4)cc23)c1F + Cc1[nH]c2ccc(F)cc2c1-c1nc2c3cccnc3c3ncccc3c2[nH]1
A: inactive

Q: Record request — test call for O=c1[nH]cc(F)c(=O)[nH]1 + Cc1cnc(CNC(=O)c2c(=O)c3ccc(N4CCCN(C)CC4)nc3n3c2sc2ccccc23)cn1
A: inactive

These data points were gathered from PubChem BioAssay AID2060492.
